# credit: patent US20050214899

biological target: T1, MQDYLT
T1 chain: MQDYLT
Kindly state Specific activity (unit/mg) for each of the entries shown.
Give bare numbers, in unit/mg.

Below: 4 proteins and their reported Specific activity (unit/mg).
protein	measurement_kind	experimental_value
MetAP-M206G-Q233G (protein) AISIKTPEDIEKMRVAGRLAAEVLEMIEPYVKPGVSTGELDRICNDYIVNEQHAVSACLGYHGYPKSVCISINEVVCHGIPDDAKLLKDGDIVNIDVTVIKDGFHGDTSKMFIVGKPTIMGERLCRITQESLYLALRMVKPGINLREIGAAIQKFVEAEGFSVVREYCGHGIGRGFHEEPQVLHYDSRETNVVLKPGMTFTIEPGVNAGKKEIRTMKDGWTVKTKDRSLSAGYEHTIVVTDNGCEILTLRKDDTIPAIISHDE	Specific activity (unit/mg)	0.29
MetAP-YMQ (wild type E. coli methionine aminopeptidase) (protein) AISIKTPEDIEKMRVAGRLAAEVLEMIEPYVKPGVSTGELDRICNDYIVNEQHAVSACLGYHGYPKSVCISINEVVCHGIPDDAKLLKDGDIVNIDVTVIKDGFHGDTSKMFIVGKPTIMGERLCRITQESLYLALRMVKPGINLREIGAAIQKFVEAEGFSVVREYCGHGIGRGFHEEPQVLHYDSRETNVVLKPGMTFTIEPMVNAGKKEIRTMKDGWTVKTKDRSLSAQYEHTIVVTDNGCEILTLRKDDTIPAIISHDE	Specific activity (unit/mg)	0.43
MetAP-GTG (protein) AISIKTPEDIEKMRVAGRLAAEVLEMIEPYVKPGVSTGELDRICNDYIVNEQHAVSACLGYHGYPKSVCISINEVVCHGIPDDAKLLKDGDIVNIDVTVIKDGFHGDTSKMFIVGKPTIMGERLCRITQESLYLALRMVKPGINLREIGAAIQKFVEAEGFSVVREGCGHGIGRGFHEEPQVLHYDSRETNVVLKPGMTFTIEPTVNAGKKEIRTMKDGWTVKTKDRSLSAGYEHTIVVTDNGCEILTLRKDDTIPAIISHDE	Specific activity (unit/mg)	0.23
MetAP-M206T-Q233T (protein) AISIKTPEDIEKMRVAGRLAAEVLEMIEPYVKPGVSTGELDRICNDYIVNEQHAVSACLGYHGYPKSVCISINEVVCHGIPDDAKLLKDGDIVNIDVTVIKDGFHGDTSKMFIVGKPTIMGERLCRITQESLYLALRMVKPGINLREIGAAIQKFVEAEGFSVVREYCGHGIGRGFHEEPQVLHYDSRETNVVLKPGMTFTIEPTVNAGKKEIRTMKDGWTVKTKDRSLSATYEHTIVVTDNGCEILTLRKDDTIPAIISHDE	Specific activity (unit/mg)	0.13

Input line: Query (protein): MetAP-M206T-Q233G (protein) AISIKTPEDIEKMRVAGRLAAEVLEMIEPYVKPGVSTGELDRICNDYIVNEQHAVSACLGYHGYPKSVCISINEVVCHGIPDDAKLLKDGDIVNIDVTVIKDGFHGDTSKMFIVGKPTIMGERLCRITQESLYLALRMVKPGINLREIGAAIQKFVEAEGFSVVREYCGHGIGRGFHEEPQVLHYDSRETNVVLKPGMTFTIEPTVNAGKKEIRTMKDGWTVKTKDRSLSAGYEHTIVVTDNGCEILTLRKDDTIPAIISHDE ; field requested: Specific activity (unit/mg)
Output line: 0.42
